Data origin: the supplement of paper PMC5908809

System: normal primary NK cells, pool 1 (3 donors) (IL-2 2.5 ng/mL)
Assay: percent inhibition of viability; higher = more inhibition
Settings: 72 h; 100 nM
experimental_readout: percent inhibition of viability (%)
Answer format: numeric, % implied, no suffix.

Guide cases for percent inhibition of viability, answers given:
CC(=O)O[C@H]1C(=O)[C@@]2(C)[C@H]([C@H](OC(=O)c3ccccc3)[C@]3(O)C[C@H](OC(=O)[C@H](O)[C@@H](NC(=O)c4ccccc4)c4ccccc4)C(C)=C1C3(C)C)[C@]1(OC(C)=O)CO[C@@H]1C[C@@H]2O [Paclitaxel] (max concentration tested 1000 nM) ... -4.6
O=C(Nc1cccc(C(F)(F)F)c1)Nc1cc(S(=O)(=O)NC2CC2)ccc1-c1ccsc1 [AGI-6780] (max concentration tested 10000 nM) ... 8.08
C=CCc1cccc(/C=N/NC(=O)CN2CCN(Cc3ccccc3)CC2)c1O [PAC-1] (max concentration tested 10000 nM) ... -1.5
COCC(=O)NC/C=C/c1ccc2ncnc(Nc3ccc(Oc4ccc(C)nc4)c(C)c3)c2c1 (max concentration tested 10000 nM) ... -1.36

--- query ---
Please give the measured percent inhibition of viability for this compound: CCc1cc2c(cc1N1CCC(N3CCOCC3)CC1)C(C)(C)c1[nH]c3cc(C#N)ccc3c1C2=O [Alectinib] (max concentration tested 1000 nM)
-1.45

====

Each entry below carries its recorded percent inhibition of viability.
System: SNK-6 (IL-2 2.5 ng/mL)
Test: percent inhibition of viability; higher = more inhibition
Conditions: 72 h; 1 nM
Answer format: numeric, % implied, no suffix.

Guide cases for percent inhibition of viability, answers given:
Nc1nc(F)nc2c1ncn2[C@@H]1O[C@H](CO)[C@@H](O)[C@@H]1O [Fludarabine] (max concentration tested 10000 nM) ... 18.4
COc1ccc(C2=N[C@@H](c3ccc(Cl)cc3)[C@@H](c3ccc(Cl)cc3)N2C(=O)N2CCNC(=O)C2)c(OC(C)C)c1 [Nutlin-3] (max concentration tested 10000 nM) ... -8.93
O=C1CN2Cc3c(ccc(Cl)c3Cl)N=C2N1 [Anagrelide] (max concentration tested 10000 nM) ... -14.4

Please give the measured percent inhibition of viability for this molecule: Nc1nc2[nH]cnc2c(=S)[nH]1 [Thioguanine] (max concentration tested 10000 nM)
-10.4

====

System: NK-YS (IL-2 2.5 ng/mL)
Test: drug sensitivity score (DSS) (DSS units); higher = more sensitive; extreme values may be limits of the assay
Conditions: 72 h
experimental_readout: drug sensitivity score
Format: numeric value only, no unit, no commentary.

Cc1cnc(Nc2ccc(OCCN3CCCC3)cc2)nc1Nc1cccc(S(=O)(=O)NC(C)(C)C)c1 (max concentration tested 10000 nM) ... 14.6

Please give the measured drug sensitivity score for this compound: C=CC(=O)N1CCC[C@@H](n2nc(-c3ccc(Oc4ccccc4)cc3)c3c(N)ncnc32)C1 [Ibrutinib] (max concentration tested 1000 nM)
0.35

Please give the measured drug sensitivity score for this compound: Nc1ccn([C@@H]2O[C@H](CO)[C@@H](O)[C@@H]2O)c(=O)n1 [Cytarabine] (max concentration tested 10000 nM)
16

Please give the measured drug sensitivity score for this compound: O=C(Nc1cccc(Nc2ncc(Br)c(NCCc3cnc[nH]3)n2)c1)N1CCCC1 [BX-912] (max concentration tested 10000 nM)
5.99

Please give the measured drug sensitivity score for this compound: COc1ccc(CCc2nc3cc(-c4c(C)noc4C)ccc3n2C[C@H](C)N2CCOCC2)cc1Cl [SGC-CBP30] (max concentration tested 25000 nM)
6.98

Please give the measured drug sensitivity score for this compound: Cc1ccccc1C(C(=O)NC1CCCCC1)N(C(=O)Cn1ccnc1C)c1cccc(F)c1 (centres undefined) [AGI-5198] (max concentration tested 10000 nM)
0.18

Please give the measured drug sensitivity score for this compound: Nc1ncn([C@H]2C[C@H](O)[C@@H](CO)O2)c(=O)n1 [Decitabine] (max concentration tested 10000 nM)
9.23

Please give the measured drug sensitivity score for this compound: Oc1ccc2c(c1)CC[C@H](c1ccccc1)[C@@H]2c1ccc(OCCN2CCCC2)cc1 [Lasofoxifene] (max concentration tested 1000 nM)
0

Please give the measured drug sensitivity score for this compound: O=C(O)CCCCC(CCSCc1ccccc1)SCc1ccccc1 (centres undefined) [CPI-613] (max concentration tested 10000 nM)
0.31
